SYSTEM_NAME: ATP-dependent translocase ABCB1 (Homo sapiens, UniProt P08183)
Sequence (P08183 whole entry): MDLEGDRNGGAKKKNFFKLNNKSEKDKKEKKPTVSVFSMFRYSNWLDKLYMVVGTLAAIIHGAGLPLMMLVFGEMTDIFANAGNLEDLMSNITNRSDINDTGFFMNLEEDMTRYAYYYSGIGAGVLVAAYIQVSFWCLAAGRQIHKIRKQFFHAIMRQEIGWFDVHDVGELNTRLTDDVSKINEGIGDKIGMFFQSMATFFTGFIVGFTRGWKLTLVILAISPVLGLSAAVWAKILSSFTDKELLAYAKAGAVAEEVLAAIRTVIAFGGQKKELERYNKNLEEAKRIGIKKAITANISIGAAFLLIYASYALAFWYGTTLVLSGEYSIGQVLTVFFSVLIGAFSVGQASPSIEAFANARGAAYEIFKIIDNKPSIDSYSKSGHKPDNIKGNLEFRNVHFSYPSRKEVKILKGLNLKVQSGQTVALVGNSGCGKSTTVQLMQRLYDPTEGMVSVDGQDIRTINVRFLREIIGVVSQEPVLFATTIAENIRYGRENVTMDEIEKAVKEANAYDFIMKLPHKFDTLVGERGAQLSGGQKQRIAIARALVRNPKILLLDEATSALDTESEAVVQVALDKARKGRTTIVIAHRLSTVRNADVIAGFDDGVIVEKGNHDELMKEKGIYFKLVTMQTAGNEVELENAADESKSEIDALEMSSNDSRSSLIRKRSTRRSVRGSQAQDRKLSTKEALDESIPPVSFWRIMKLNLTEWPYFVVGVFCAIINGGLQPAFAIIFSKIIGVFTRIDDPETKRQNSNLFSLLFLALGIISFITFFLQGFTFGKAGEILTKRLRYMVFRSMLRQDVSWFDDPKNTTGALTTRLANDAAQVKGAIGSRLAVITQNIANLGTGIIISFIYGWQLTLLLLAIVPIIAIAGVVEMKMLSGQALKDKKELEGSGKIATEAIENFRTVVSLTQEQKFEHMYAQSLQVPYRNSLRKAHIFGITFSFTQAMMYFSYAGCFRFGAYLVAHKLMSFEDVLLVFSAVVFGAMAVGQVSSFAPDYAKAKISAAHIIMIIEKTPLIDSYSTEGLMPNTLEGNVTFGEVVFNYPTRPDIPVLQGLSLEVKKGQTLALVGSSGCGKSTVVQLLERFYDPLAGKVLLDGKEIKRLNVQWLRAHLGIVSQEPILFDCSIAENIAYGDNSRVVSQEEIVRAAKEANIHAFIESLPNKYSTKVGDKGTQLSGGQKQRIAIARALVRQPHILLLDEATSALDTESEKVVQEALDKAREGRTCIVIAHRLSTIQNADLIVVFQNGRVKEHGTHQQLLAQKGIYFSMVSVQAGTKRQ
METHOD: Inhibition of p-gp in human KB/VCR cells assessed as potentiation of 1 uM docetaxel-induced cytotoxicity at 5 uM after 72 hrs by MTT assay relative to verapamil
Format: cell-based
PARAMETER: fold change (FC)
// no unit, no text: just the number

Lookup: What value of fold change (FC) has been recorded for this entry: CC1(C)[C@@H](O)CC[C@]2(C)[C@H]3C[C@@H](O)[C@@H]4[C@@H]([C@@](C)(O)CCCNCc5ccccc5)CC[C@@]4(C)[C@]3(C)CC[C@@H]12
Found: 1.5

Lookup: What value of fold change (FC) has been recorded for this entry: CC1(C)[C@@H](O)CC[C@]2(C)[C@H]3C[C@@H](O)[C@@H]4[C@@H]([C@@](C)(O)CCCNCCc5ccccc5)CC[C@@]4(C)[C@]3(C)CC[C@@H]12
Found: 2.6

---

SYSTEM_NAME: UniProt P08183
METHOD: Inhibition of p-gp in human KB/VCR cells assessed as potentiation of 1 uM docetaxel-induced cytotoxicity at 5 uM after 72 hrs by MTT assay
Assay type: cell-based
PARAMETER: inhibition (INH)

# count of solved cases: 4
{"COMPOUND_STRING": "CNCCC[C@](C)(O)[C@H]1CC[C@]2(C)[C@@H]1[C@H](O)C[C@@H]1[C@@]3(C)CC[C@H](O)C(C)(C)[C@@H]3CC[C@]12C", "inhibition (INH)": "Not Active"}
{"COMPOUND_STRING": "CCNCCC[C@](C)(O)[C@H]1CC[C@]2(C)[C@@H]1[C@H](O)C[C@@H]1[C@@]3(C)CC[C@H](O)C(C)(C)[C@@H]3CC[C@]12C", "inhibition (INH)": "Not Active"}
{"COMPOUND_STRING": "CC(C)=CCC[C@](C)(O)[C@H]1CC[C@]2(C)[C@@H]1[C@H](O)C[C@@H]1[C@@]3(C)CC[C@H](O)C(C)(C)[C@@H]3CC[C@]12C", "inhibition (INH)": "Not Active"}
{"COMPOUND_STRING": "CC1(C)[C@@H](O)CC[C@]2(C)[C@H]3C[C@@H](O)[C@@H]4[C@@H]([C@@](C)(O)CCCNCCCn5ccnc5)CC[C@@]4(C)[C@]3(C)CC[C@@H]12", "inhibition (INH)": "Not Active"}

From here, focus on the item given below.
Lookup: What value of inhibition (INH) has been recorded for this entry: COc1ccc(CNCCC[C@](C)(O)[C@H]2CC[C@]3(C)[C@@H]2[C@H](O)C[C@@H]2[C@@]4(C)CC[C@H](O)C(C)(C)[C@@H]4CC[C@]23C)cc1OC
Found: Active

---

SYSTEM_NAME: ATP-dependent translocase ABCB1 (Homo sapiens, UniProt P08183)
METHOD: Inhibition of p-gp in human KB/VCR cells assessed as potentiation of 1 uM docetaxel-induced cytotoxicity at 5 uM after 72 hrs by MTT assay
Format: cell-based

{"COMPOUND_STRING": "CC1(C)[C@@H](O)CC[C@]2(C)[C@H]3C[C@@H](O)[C@@H]4[C@@H]([C@@](C)(O)CCCNCCCc5ccccc5)CC[C@@]4(C)[C@]3(C)CC[C@@H]12", "inhibition (INH)": "Active"}
{"COMPOUND_STRING": "COc1ccc(CNCCC[C@](C)(O)[C@H]2CC[C@]3(C)[C@@H]2[C@H](O)C[C@@H]2[C@@]4(C)CC[C@H](O)C(C)(C)[C@@H]4CC[C@]23C)cc1", "inhibition (INH)": "Active"}

---

SYSTEM_NAME: ATP-dependent translocase ABCB1 (Homo sapiens, UniProt P08183)
METHOD: Inhibition of p-gp in human KB/VCR cells assessed as potentiation of 1 uM docetaxel-induced cytotoxicity at 5 uM after 72 hrs by MTT assay
Format: cell-based
PARAMETER: inhibition (INH)

# count of solved cases: 5
{"COMPOUND_STRING": "CC(C)(C)NCCC[C@](C)(O)[C@H]1CC[C@]2(C)[C@@H]1[C@H](O)C[C@@H]1[C@@]3(C)CC[C@H](O)C(C)(C)[C@@H]3CC[C@]12C", "SYSTEM_NAME": "ATP-dependent translocase ABCB1 (Homo sapiens, UniProt P08183)", "DATA_VALUE": "Not Active"}
{"COMPOUND_STRING": "CC1(C)[C@@H](O)CC[C@]2(C)[C@H]3C[C@@H](O)[C@@H]4[C@@H]([C@@](C)(O)CCCNCCc5ccc6c(c5)OCO6)CC[C@@]4(C)[C@]3(C)CC[C@@H]12", "SYSTEM_NAME": "ATP-dependent translocase ABCB1 (Homo sapiens, UniProt P08183)", "DATA_VALUE": "Active"}
{"COMPOUND_STRING": "CC1(C)[C@@H](O)CC[C@]2(C)[C@H]3C[C@@H](O)[C@@H]4[C@@H]([C@@](C)(O)CCCNCCc5ccc([N+](=O)[O-])cc5)CC[C@@]4(C)[C@]3(C)CC[C@@H]12", "SYSTEM_NAME": "ATP-dependent translocase ABCB1 (Homo sapiens, UniProt P08183)", "DATA_VALUE": "Active"}
{"COMPOUND_STRING": "C[C@H](NCCC[C@](C)(O)[C@H]1CC[C@]2(C)[C@@H]1[C@H](O)C[C@@H]1[C@@]3(C)CC[C@H](O)C(C)(C)[C@@H]3CC[C@]12C)c1ccccc1", "SYSTEM_NAME": "ATP-dependent translocase ABCB1 (Homo sapiens, UniProt P08183)", "DATA_VALUE": "Active"}
{"COMPOUND_STRING": "CCCNCCC[C@](C)(O)[C@H]1CC[C@]2(C)[C@@H]1[C@H](O)C[C@@H]1[C@@]3(C)CC[C@H](O)C(C)(C)[C@@H]3CC[C@]12C", "SYSTEM_NAME": "ATP-dependent translocase ABCB1 (Homo sapiens, UniProt P08183)", "DATA_VALUE": "Not Active"}

Lookup: What value of inhibition (INH) has been recorded for this entry: CC1(C)[C@@H](O)CC[C@]2(C)[C@H]3C[C@@H](O)[C@@H]4[C@@H]([C@@](C)(O)CCCNCc5ccc(F)cc5)CC[C@@]4(C)[C@]3(C)CC[C@@H]12
Found: Active

Value source: ChEMBL document CHEMBL2396581
